Attribution: patent US10874669B2

Record form. Attribute: Emax. Fill in for each entry.
Molecular target: human DA D2 receptors (Homo sapiens (Human), UniProt P14416)
Sequence (P14416 whole entry): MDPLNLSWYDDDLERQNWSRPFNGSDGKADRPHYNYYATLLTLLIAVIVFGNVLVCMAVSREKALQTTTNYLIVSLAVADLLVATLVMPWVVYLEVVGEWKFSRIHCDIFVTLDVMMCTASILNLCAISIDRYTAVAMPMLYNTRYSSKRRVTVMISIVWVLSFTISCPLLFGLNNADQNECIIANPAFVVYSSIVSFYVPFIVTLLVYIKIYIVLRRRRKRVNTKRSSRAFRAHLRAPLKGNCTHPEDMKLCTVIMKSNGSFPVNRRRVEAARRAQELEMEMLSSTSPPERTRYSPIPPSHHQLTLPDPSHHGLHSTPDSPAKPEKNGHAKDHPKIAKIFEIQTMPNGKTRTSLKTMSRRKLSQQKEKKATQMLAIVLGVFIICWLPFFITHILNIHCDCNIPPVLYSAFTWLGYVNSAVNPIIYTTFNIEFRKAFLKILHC
Experiment: [35S]GTPγS binding stimulation, human D2 receptors in CHO cells
Assay type: biochemical
Conditions: compared with maximum stimulation by full agonist DA

Guide cases for Emax, answers given:
CCCN(CCN1CCN(c2ccc3[nH]c4ccccc4c3c2)CC1)[C@H]1CCc2nc(N)sc2C1 [(−)-91b] ... 87 to 93%
CCCN(CCN1CCN(c2cccc3[nH]c4ccccc4c23)CC1)[C@H]1CCc2c(O)cccc2C1 [Compound (−)-95c] ... 74 to 88%
CCCN(CCN1CCN(c2ccc3c(c2)[nH]c2ccccc23)CC1)[C@H]1CCc2c(O)cccc2C1 [Compound (−)-95a] ... 85 to 92%

Please look at the following compound next.
Data request, read-out Emax, for CCCN(CCN1CCN(c2cccc3[nH]c4ccccc4c23)CC1)[C@H]1CCc2nc(N)sc2C1 [(−)-91c]
57%
